Data provenance: patent US11000490B2

- protocol_notes: in vivo
- condition_set: both sexes, New Zealand White, rabbit, rabbits, 0.3 mg trans-capsaicin as Capsaicin Formulation A, intra-articular, Day 1, combined males and females, read-out: mean AUC0-24
measured_attribute: AUC(0-t) (ng·h/mL)
Kindly provide the numeric value in ng·h/mL only, without the unit symbol.

Req: What does the record list as AUC(0-t) for COc1cc(CNC(=O)CCCCC=CC(C)C)ccc1O [trans-capsaicin] ?
Resp: 27.8
